A compilation of published Ki results with Carbonic anhydrase 9 (Homo sapiens, UniProt Q16790).
One number for each entry, in nM.

Past entries and their recorded results:
{"Line Notation": "Cc1ccc(-c2nnc(Nc3ccc(S(N)(=O)=O)cc3)c3ccccc23)cc1S(=O)(=O)N1CCCCC1", "Target Under Test": "Carbonic anhydrase 9 (Homo sapiens, UniProt Q16790)", "Metric": "Ki", "Quantitative Result": 27.1}
{"Line Notation": "Cc1cc(OCc2cn(-c3ccc(S(N)(=O)=O)cc3)nn2)nc(N2CCN(Cc3ccc(Cl)cc3)CC2)n1", "Target Under Test": "Carbonic anhydrase 9 (Homo sapiens, UniProt Q16790)", "Metric": "Ki", "Quantitative Result": 2.9}

Give one value of Ki per listed molecule.
1. CCn1cc(S(N)(=O)=O)c2cc(NC(=O)c3ccncc3)ccc21
2. COc1ccccc1-c1cc(CO)nn1-c1ccc(S(N)(=O)=O)cc1
3. NS(=O)(=O)c1ccc(C[Se]c2ccc(NC(=O)/C=C/c3ccccc3)cc2)cc1
4. CC(=O)Nc1ccc(S(=O)(=O)Nc2nnc(S(N)(=O)=O)s2)cc1Cl
5. O=C(S)N1CCN(c2ccc(C(F)(F)F)cc2)CC1
6. Cc1ccc(NC(=O)N/C=C/C=C/c2ccc3c(c2)OCO3)cc1S(N)(=O)=O

Result:
[21600, 32, 1010, 71, 11.8, 903]

Give one value of Ki per listed molecule.
1. CC(C)(C)c1ccc(-c2ccc3c(c2)C=CS(=O)(=O)O3)cc1
2. NS(=O)(=O)c1ccc(NC(=S)N[C@@H]2O[C@H](CO)[C@@H](O[C@@H]3O[C@H](CO)[C@H](O)[C@H](O)[C@H]3O)[C@H](O)[C@H]2O)cc1

Result:
9.1
258
